TEST_TARGET: human ACC2 (acetyl-coenzyme A carboxylase 2) (Homo sapiens)
Sequence (O00763 27-2458 limits assumed): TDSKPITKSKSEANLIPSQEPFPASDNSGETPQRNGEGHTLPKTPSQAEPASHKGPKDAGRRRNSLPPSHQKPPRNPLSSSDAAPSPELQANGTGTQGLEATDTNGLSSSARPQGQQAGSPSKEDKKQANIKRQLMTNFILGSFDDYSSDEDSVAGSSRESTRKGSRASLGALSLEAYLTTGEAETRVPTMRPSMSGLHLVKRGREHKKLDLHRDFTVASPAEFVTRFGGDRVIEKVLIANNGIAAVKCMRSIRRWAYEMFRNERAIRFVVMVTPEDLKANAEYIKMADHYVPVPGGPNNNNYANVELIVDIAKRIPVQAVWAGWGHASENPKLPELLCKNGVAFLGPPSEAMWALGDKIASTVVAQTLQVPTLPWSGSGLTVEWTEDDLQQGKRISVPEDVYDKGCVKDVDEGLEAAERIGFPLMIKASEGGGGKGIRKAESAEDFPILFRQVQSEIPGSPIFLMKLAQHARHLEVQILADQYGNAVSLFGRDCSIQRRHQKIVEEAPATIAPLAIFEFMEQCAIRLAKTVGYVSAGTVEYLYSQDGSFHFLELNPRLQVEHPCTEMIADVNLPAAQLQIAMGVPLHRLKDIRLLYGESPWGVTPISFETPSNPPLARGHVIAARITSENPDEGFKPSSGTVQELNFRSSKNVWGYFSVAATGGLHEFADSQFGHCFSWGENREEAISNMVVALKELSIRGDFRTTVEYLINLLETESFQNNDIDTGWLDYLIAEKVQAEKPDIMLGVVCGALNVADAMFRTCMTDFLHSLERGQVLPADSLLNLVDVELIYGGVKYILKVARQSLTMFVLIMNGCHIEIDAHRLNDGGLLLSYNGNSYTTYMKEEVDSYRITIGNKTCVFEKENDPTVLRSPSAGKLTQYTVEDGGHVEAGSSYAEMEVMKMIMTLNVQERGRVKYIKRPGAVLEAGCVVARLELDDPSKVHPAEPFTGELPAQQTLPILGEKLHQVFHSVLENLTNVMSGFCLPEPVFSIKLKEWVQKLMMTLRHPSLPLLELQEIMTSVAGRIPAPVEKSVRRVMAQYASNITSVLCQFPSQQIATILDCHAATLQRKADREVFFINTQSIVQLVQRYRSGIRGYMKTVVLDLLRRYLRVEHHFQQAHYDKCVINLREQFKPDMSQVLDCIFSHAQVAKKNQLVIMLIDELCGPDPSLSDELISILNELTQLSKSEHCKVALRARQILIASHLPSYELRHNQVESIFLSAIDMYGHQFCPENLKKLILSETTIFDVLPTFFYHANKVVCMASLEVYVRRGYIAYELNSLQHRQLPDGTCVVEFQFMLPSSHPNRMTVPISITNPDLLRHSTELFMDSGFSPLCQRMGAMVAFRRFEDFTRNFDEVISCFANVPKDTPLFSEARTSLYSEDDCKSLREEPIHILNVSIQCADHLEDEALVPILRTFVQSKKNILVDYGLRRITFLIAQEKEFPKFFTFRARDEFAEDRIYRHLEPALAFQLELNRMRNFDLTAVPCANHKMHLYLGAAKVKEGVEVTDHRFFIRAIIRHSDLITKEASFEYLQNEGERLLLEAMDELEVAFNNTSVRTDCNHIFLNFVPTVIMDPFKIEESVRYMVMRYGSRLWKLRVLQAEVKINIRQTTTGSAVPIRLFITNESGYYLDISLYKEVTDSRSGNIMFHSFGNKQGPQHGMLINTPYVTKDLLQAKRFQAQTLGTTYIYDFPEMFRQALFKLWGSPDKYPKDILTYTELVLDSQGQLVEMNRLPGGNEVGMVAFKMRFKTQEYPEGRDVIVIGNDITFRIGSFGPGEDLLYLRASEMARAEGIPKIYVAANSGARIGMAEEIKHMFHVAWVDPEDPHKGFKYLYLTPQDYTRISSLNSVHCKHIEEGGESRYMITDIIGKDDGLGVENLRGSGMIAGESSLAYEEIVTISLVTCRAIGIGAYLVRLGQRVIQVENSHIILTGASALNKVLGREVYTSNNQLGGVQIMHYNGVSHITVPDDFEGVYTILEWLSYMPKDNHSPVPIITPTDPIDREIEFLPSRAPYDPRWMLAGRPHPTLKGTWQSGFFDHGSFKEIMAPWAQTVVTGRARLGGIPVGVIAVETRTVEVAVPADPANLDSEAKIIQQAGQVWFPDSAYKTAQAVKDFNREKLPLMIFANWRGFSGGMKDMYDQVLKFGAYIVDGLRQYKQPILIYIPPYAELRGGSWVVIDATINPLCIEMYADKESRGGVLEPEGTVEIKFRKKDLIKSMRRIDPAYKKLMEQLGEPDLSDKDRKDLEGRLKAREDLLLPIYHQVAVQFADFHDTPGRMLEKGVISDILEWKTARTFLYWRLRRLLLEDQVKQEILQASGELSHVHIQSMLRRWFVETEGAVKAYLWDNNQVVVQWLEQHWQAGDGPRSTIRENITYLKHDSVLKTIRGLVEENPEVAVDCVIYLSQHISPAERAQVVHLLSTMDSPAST
ASSAY_EXPLANATION: Human ACC2 enzyme assay, Assay B2 (ADP-Glo);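 further: human ACC2 activity read as ADP product, detected by luciferase glow luminescence after residual ATP removal, enzyme near 2 ng/µl in linear range, detection steps at 22 °C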
We begin with a simple list: items and their reported IC50.

{"columns": ["MOLECULE", "REL", "IC50 / µM"],
 "data": [
  ["Cc1ccc(-c2ccc(Cl)cc2)c(C)c1C1C(=O)N2CCOCCN2C1=O", ">", 20],
  ["CCCC1CCC2(CC1)NC(=O)C(c1cc(-c3ccc(Cl)cc3)ccc1C)=C2O (stereo not shown)", "=", 1.88],
  ["COCC1CCCC2(C1)NC(=O)C(c1cc(-c3ccc(Cl)cc3)ccc1Cl)=C2O (stereo not shown)", "=", 16],
  ["Cc1ccc(-c2ccc(Cl)c(F)c2)cc1C1=C(O)[C@]2(CC[C@](O)(C(F)(F)F)CC2)NC1=O", "=", 11.2],
  ["Cc1ccc(-c2ccc(Cl)cc2)cc1C1=C(O)C(C)(C)OC1=O", ">", 20],
  ["O=C1N[C@]2(CC[C@@H](OCC(F)(F)F)CC2)C(O)=C1c1cc(-c2ccc(Cl)cc2)ccc1Cl", "=", 2.62],
  ["Cc1ccc(-c2ccc(Cl)cc2)cc1C1=C(O)C2(CCCCC2)NC1=O", "=", 2.59],
  ["Cc1cc(C)c(-c2ccc(Cl)cc2)cc1C1=C(O)[C@]2(CC[C@H](C(F)(F)F)CC2)NC1=O", "=", 0.174],
  ["Cc1ccc(-c2cccc(Cl)c2)cc1C1=C(O)C2(CCCCC2)CC1=O", ">", 20],
  ["COC[C@H]1CC[C@]2(CC1)NC(=O)C(c1cc(-c3ccc(F)c(F)c3)ccc1C)=C2O", "=", 8.43],
  ["Cc1cc(C)c(-c2ccc(Cl)cc2)c(C)c1C1=C(O)[C@]2(CC[C@@]3(CCCO3)CC2)OC1=O", "=", 0.076],
  ["Cc1ccc(-c2ccc(Cl)cc2)cc1C1=C(O)CN(C2CCCCC2)C1=O", "=", 16.3],
  ["Cc1cc(C)c(-c2c(O)c3ccc(Cl)cc3[nH]c2=O)cc1-c1ccc(Cl)cc1", "=", 2.09],
  ["Cc1ccc(-c2ccc(C)c(C3=C(O)C4(CCCCC4)CC3=O)c2)cc1", "=", 19.7],
  ["Cc1ccc(-c2ccc(Cl)c(F)c2)c(C)c1C1=C(O)[C@]2(CC[C@H](C(F)(F)F)CC2)NC1=O", "=", 4.01],
  ["Cc1ccc(-c2ccc(F)c(F)c2)c(C)c1C1=C(O)[C@]2(CC[C@H](C(F)(F)F)CC2)NC1=O", "=", 10.5],
  ["COCC1CCCC2(C1)NC(=O)C(c1cc(-c3ccc(Cl)cc3)ccc1C)=C2O (stereo not shown)", "=", 5.45],
  ["CO[C@H]1CC[C@]2(CC1)NC(=O)C(c1cc(-c3ccc(Cl)cc3)c(F)cc1C)=C2O", "=", 1.75],
  ["COCC1CCC2(CC1)NC(=O)C(c1c(C)ccc(-c3ccc(Cl)cc3)c1C)=C2O (stereo not shown)", "=", 0.632],
  ["CO[C@H]1CC[C@]2(CC1)NC(=O)C(c1cc(-c3ccc(Cl)cc3Cl)ccc1C)=C2O", "=", 2.15],
  ["Cc1ccc(-c2ccc(Cl)cc2)c(C)c1C1=C(O)[C@]2(CC[C@](O)(C(F)(F)F)CC2)NC1=O", "=", 6.77],
  ["Cc1ccc(-c2ccc(Cl)cc2)cc1C1=C(O)C2(CCC3(CCCO3)CC2)OC1=O (stereo not shown)", "=", 3],
  ["COC1CCCC2(C1)OC(=O)C(c1cc(-c3ccc(Cl)cc3)ccc1C)=C2O (stereo not shown)", ">", 20],
  ["Cc1ccc(-c2ccc(Cl)c(F)c2)cc1C1=C(O)[C@]2(CC[C@](O)(C(F)(F)C(F)(F)F)CC2)NC1=O", "=", 5.89],
  ["COCC[C@H]1CC[C@]2(CC1)NC(=O)C(c1cc(-c3ccc(Cl)c(F)c3)ccc1C)=C2O", "=", 1.64],
  ["CCO[C@H]1CC[C@@]2(CC1)NC(=O)C(c1cc(-c3ccc(Cl)cc3)ccc1C)=C2O", "=", 2.03],
  ["Cc1ccc(-c2ccc(Cl)c(F)c2)cc1C1=C(O)[C@]2(CC[C@H](C)CC2)NC1=O", "=", 0.488],
  ["Cc1ccc(-c2ccc(Cl)cc2)c(C)c1C1=C(O)C2(CCC3(CC2)OCC(C)O3)NC1=O (stereo not shown)", "=", 5.74],
  ["O=C1NC2(CCC3(CC2)OCCO3)C(O)=C1c1cc(-c2ccc(Cl)cc2)ccc1Cl", "=", 9.04],
  ["O=C1OC2(CCC3(CCCO3)CC2)C(O)=C1c1cc(-c2ccc(Cl)cc2)ccc1Cl (stereo not shown)", "=", 7.01],
  ["Cc1ccc(-c2ccc(Cl)cc2)c(C)c1C1=C(O)C2(CCCC2)OC1=O", ">", 20],
  ["CO[C@H]1CC[C@]2(CC1)NC(=O)C(c1cc(-c3ccc(F)c(F)c3)cc(F)c1C)=C2O", ">", 20],
  ["Cc1ccc(-c2ccc(Cl)cc2)cc1C1=C(O)CN(C(C)C)C1=O", "=", 11.4],
  ["Cc1ccc(-c2ccc(Cl)cc2)cc1C1=C(O)[C@]2(CC[C@H](CO)CC2)NC1=O", "=", 4.11]
]}
